target: Beta-1 adrenergic receptor (Homo sapiens); experiment: In vitro agonist activity measured by increase in cAMP levels in chinese hamster ovary cells (CHO) cells expressing human Beta-1 adrenergic receptor; type: functional, cell-based
Sequence (P08588 whole entry): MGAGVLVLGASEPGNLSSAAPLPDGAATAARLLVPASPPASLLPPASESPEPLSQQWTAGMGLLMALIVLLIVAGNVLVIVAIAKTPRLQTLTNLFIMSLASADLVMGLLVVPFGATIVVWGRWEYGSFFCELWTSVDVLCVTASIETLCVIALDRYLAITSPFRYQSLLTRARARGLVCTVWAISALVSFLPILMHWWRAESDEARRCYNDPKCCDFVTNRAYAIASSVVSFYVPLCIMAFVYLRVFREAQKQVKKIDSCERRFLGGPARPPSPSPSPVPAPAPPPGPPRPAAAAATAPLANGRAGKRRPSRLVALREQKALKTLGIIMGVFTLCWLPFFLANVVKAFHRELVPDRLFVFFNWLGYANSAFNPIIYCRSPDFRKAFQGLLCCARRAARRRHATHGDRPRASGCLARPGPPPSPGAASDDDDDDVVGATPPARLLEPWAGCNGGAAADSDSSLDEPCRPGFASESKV
Would you mind telling me the reported EC50 of each entry?
Unit nM implied. Number only.

Which EC50 reading was recorded for the compound O=C(Nc1ccc(S(=O)(=O)N2CCC(CNC[C@H](O)COc3ccc(O)cc3)CC2)cc1)NC1CCCCC1 ?
1020

Then O=C(NCc1cc(F)ccc1F)Nc1ccc(S(=O)(=O)N2CCC(CNC[C@H](O)COc3ccc(O)c(F)c3)CC2)cc1 ?
525

// repeat for O=C(NCCCc1cccs1)Nc1ccc(S(=O)(=O)N2CCC(CNC[C@H](O)COc3ccc(O)cc3)CC2)cc1 and report
2050

Follow-up entry: O[C@@H](CNCC1CCN(CCC(F)(F)F)CC1)COc1cccc2[nH]c3ccccc3c12
417

====

biological target: Beta-3 adrenergic receptor (Homo sapiens, UniProt P13945); assay: In vitro agonist activity by increase in cAMP levels in chinese hamster ovary cells (CHO) cells stimulated by human Beta-3 Adrenoceptor was determined; assay type: functional, cell-based
Sequence (P13945 whole entry): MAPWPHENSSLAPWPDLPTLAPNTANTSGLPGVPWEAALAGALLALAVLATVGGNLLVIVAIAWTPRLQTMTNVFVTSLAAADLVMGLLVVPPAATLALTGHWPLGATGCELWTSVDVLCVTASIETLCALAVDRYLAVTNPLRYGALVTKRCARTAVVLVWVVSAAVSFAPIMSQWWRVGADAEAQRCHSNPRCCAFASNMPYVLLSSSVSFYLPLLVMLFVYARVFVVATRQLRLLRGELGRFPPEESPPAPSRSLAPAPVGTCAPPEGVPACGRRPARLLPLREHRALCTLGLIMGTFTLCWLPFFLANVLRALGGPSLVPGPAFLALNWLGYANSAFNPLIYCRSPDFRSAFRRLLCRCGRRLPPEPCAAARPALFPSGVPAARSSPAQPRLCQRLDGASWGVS
measure: pEC50
Remember, pEC50 is on a log scale: it is -log10 of the molar concentration.

# get_value(readout='pEC50', item= O=C(O)c1cccc(NC(=O)N2CCC(CNC[C@H](O)COc3cccc4[nH]c5ccccc5c34)CC2)c1 )
7.15

====

For each of the compounds below, state its pEC50.
target: Beta-1 adrenergic receptor (Homo sapiens); assay: In vitro agonist activity measured by increase in cAMP levels in chinese hamster ovary cells (CHO) cells expressing human Beta-1 adrenergic receptor; format: functional, cell-based
Scale explanation: pEC50 corresponds to minus log10 of a concentration expressed in moles per litre.

Which pEC50 value belongs to CCCCCCCCNC(=O)Nc1ccc(S(=O)(=O)N2CCC(CNC[C@H](O)COc3ccc(O)cc3)CC2)cc1 ?
6.05

Cool, now CS(=O)(=O)Nc1cc(OC[C@@H](O)CNCC2CCN(S(=O)(=O)c3ccc(NC(=O)NCc4cc(F)ccc4F)cc3)CC2)ccc1O
6.45

Next: CCCCCCCCNC(=O)Nc1ccc(S(=O)(=O)N2CCC(CNC[C@H](O)COc3ccc(O)c4c3CCC(=O)N4)CC2)cc1
6.41

====

molecular target: Beta-2 adrenergic receptor (Homo sapiens); assay: In vitro agonist activity measured by increase in cAMP levels in chinese hamster ovary cells (CHO) cells expressing human Beta-2 adrenergic receptor; assay type: functional, cell-based
Sequence (P07550 whole entry): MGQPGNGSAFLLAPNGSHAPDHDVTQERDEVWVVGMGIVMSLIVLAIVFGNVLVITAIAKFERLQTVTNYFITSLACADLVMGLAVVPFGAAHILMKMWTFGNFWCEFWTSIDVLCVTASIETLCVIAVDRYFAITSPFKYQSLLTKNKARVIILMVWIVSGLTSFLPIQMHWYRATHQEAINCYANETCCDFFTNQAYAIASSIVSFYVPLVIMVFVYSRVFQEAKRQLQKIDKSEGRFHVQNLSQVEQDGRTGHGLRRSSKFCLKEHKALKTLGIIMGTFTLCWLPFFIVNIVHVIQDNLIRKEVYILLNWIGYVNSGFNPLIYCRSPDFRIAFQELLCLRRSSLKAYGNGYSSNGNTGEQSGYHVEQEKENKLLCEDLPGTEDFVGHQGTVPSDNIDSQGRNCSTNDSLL
Assign EC50 to each entry below.

Requested read-out: EC50. Entry: CCCCCCN1CCC(CNC[C@H](O)COc2cccc3[nH]c4ccccc4c23)CC1
> 1000 nM

Another compound: CS(=O)(=O)Nc1cc(OC[C@@H](O)CNCC2CCN(S(=O)(=O)c3ccc(NC(=O)NCc4cc(F)ccc4F)cc3)CC2)ccc1O
454 nM

Param item: CCCCCCNC(=O)Nc1ccc(S(=O)(=O)N2CCC(CNC[C@H](O)COc3cccc4[nH]c5ccccc5c34)CC2)cc1
> 1000 nM

Do the same for CCCCCCCCNC(=O)Nc1ccc(S(=O)(=O)N2CCC(CNC[C@H](O)COc3ccc(O)c4c3CCC(=O)N4)CC2)cc1 please
680 nM

Further, for O[C@@H](CNCC1CCN(CCC(F)(F)F)CC1)COc1cccc2[nH]c3ccccc3c12 ?
> 1000 nM
